Data origin, for the record: patent US12281119B2

Target: UniProt Q9NYK1
Sequence (Q9NYK1 27-1049): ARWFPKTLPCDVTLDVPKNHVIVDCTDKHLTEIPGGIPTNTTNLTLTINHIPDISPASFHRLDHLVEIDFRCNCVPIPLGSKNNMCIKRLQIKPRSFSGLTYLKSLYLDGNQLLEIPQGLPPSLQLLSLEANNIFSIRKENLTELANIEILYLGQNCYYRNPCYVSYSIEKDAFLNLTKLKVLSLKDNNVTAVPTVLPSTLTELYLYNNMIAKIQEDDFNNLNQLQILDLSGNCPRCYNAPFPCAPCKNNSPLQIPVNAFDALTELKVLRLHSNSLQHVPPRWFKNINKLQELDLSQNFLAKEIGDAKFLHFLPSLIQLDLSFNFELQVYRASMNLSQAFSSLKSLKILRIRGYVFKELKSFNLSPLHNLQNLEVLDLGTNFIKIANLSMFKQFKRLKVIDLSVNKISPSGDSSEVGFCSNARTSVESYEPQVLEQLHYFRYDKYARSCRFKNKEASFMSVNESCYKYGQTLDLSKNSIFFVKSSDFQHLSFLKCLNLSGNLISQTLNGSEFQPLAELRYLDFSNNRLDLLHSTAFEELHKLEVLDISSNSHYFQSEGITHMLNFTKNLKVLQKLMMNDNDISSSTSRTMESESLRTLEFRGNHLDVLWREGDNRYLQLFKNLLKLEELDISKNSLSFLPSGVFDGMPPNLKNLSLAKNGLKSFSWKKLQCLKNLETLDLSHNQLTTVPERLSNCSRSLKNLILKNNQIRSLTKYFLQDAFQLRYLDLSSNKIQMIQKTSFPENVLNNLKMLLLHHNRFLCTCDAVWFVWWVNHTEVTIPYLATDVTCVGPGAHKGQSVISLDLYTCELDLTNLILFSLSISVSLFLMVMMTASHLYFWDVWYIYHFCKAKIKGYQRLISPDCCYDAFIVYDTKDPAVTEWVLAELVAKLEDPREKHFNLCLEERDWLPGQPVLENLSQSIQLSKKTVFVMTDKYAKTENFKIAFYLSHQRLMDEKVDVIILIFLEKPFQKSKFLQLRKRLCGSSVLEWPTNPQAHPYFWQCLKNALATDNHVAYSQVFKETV
Experiment: TLR7 stimulation determined using HEK-Blue Detection
Type: cell-based
Design: expressed in transfected cells; host or cells: HEK293 (HEK-Blue hTLR7)
Conditions: HEK-Blue hTLR7 cells, HEK-Blue Detection (A77-A124), 16 hr, relative to Resiquimod maximum
metric: pEC50
Please express pEC50 as -log10 of the molar concentration.

Answer with the recorded pEC50 for the compound listed here: CCCC(CCO)Oc1nc(N)c2ncc(Cc3ccc(OCCNC)c(F)c3)n2n1 (stereo not drawn) [Compound A91]
8.68

Give the value of pEC50 reported for the following: CCCC(CCO)Oc1nc(N)c2ncc(Cc3ccc(N(C)CCNC)cc3)n2n1 (stereo not drawn)
7.86
